System: NCI/ADR-RES ovarian
test description: NCI tumour cell line growth inhibition, 48 h
readout label: TGI (µM)
API: value field is a number in µM; no unit string.

Problem: // returns reported TGI for input COc1cc2c3c(n(CCCN4CCOCC4)c(=O)c2cc1OC)-c1cc2c(cc1C3=O)OCO2
Result: 27.1

Problem: Lookup CCOC(=O)c1c2c(n3cccc(F)c13)C(=O)c1ncccc1C2=O
Result: 6.82

* * *

Exercise: state measured TGI for each of the molecules provided.
Tested on: HL-60(TB) leukemia
test description: NCI tumour cell line growth inhibition, 48 h
API: value field is a number in µM; no unit string.

Problem: // returns reported TGI for input Cc1c(C)c(C)c(CSC(=N)N)c(C)c1C
Result: 27.6

Problem: Lookup CC(=O)OCC1OC(OC2CC3C(C)(C)C(=O)CC[C@]3(C)C3CC[C@]45C[C@]4(CCC5[C@@H](C)CC(O)C(O)C(C)(C)O)[C@]23C)C(O)C(O)C1O (some centres not stated)
Result: 5.05

Problem: Lookup O=C1c2cccnc2-c2nccc3ccnc1c23
Result: 0.185

Problem: Lookup Cc1cc(Cl)ccc1Nc1nc(C(F)(F)F)ccc1C(=O)N/N=C/c1ccc(F)cc1
Result: 5.01

Problem: Lookup O=C1C=CC(=O)N1CCCCCCCCCCN1C(=O)C=CC1=O
Result: 31.4

Problem: Lookup O=C(O)c1cn(C2CC2)c2cc(N3CCN(C(=O)Nc4nc(-c5ccc(Cl)cc5)cs4)CC3)c(F)cc2c1=O
Result: 4.76

Problem: Lookup O=C(Nc1cccc2ccccc12)c1cc2ccccc2cc1O
Result: 8.22

Problem: Lookup Cc1cc(Cl)ccc1Nc1nc(C(F)(F)F)ccc1C(=O)N/N=C/c1c(Cl)cccc1Cl
Result: 0.53

Problem: Lookup NS(=O)(=O)c1ccc(NCc2cnc3ccccc3c2)cc1
Result: 3.96

Problem: Lookup O=C(Nc1cccc(-n2cc(-c3ccncc3)c(-c3ccc(O)c(Cl)c3)n2)c1)Nc1ccc(Cl)c(C(F)(F)F)c1
Result: 6.38

Problem: Lookup COC(=O)[C@]1(C)CCC[C@]2(C)C3CC4OOC3(C=C4C(C)C)CCC21 (some centres not stated)
Result: 4.15

Problem: Lookup COc1ccc(/C=C2\CCCC3=C2N=C2SC=NN2C3c2ccc(OC)c(OC)c2)cc1OC (configuration not stated)
Result: 78

Problem: Lookup CC(C)(Cc1ccccc1)Cc1cc(O)ccc1O
Result: 4.8

Problem: Lookup CC[C@]12C=CCN3CCC4(c5cc(N=Nc6ccc([N+](=O)[O-])cc6)c(OC)cc5N(C)[C@H]4[C@@](O)(C(=O)OC)[C@@H]1OC(C)=O)[C@@H]32 (some centres not stated)
Result: 28.1

Problem: Lookup CCOC(=O)C(SCCO)C(C(=O)OCC)n1cc(C)c(=O)[nH]c1=O (configuration not stated)
Result: 4.88

* * *

Exercise: state measured TGI for each of the compounds provided.
Tested on: UO-31 renal
test description: NCI tumour cell line growth inhibition, 48 h

Problem: // returns reported TGI for input Cc1ccc(S(=O)(=O)NC(=O)Nc2nc(Cl)cc(Cl)n2)cc1
Result: > 100 µM

Problem: Lookup O=C(O)CCCC#CCCCC(=O)O
Result: > 100 µM

Problem: Lookup O=C(O)C#Cc1ccc([N+](=O)[O-])cc1
Result: > 100 µM

Problem: Lookup COc1ccc(-c2oncc2-c2cc(OC)c3c(c2)OCO3)cc1
Result: 55.9 µM

Problem: Lookup C/C(CC(=O)Nc1ccc([N+](=O)[O-])cc1)=N/N=C(N)N
Result: > 100 µM

Problem: Lookup CC1(CC(=O)OC(C#C[Si](C)(C)C)Cc2ccccc2)OCCO1 (stereo unspecified)
Result: > 100 µM

Problem: Lookup CSc1ccc2c(c1)C(=O)c1c-2n(CCCN=[N+]=[N-])c(=O)c2cc([N+](=O)[O-])ccc12
Result: > 100 µM

Problem: Lookup N=C1N=Nc2nc(C3(c4nc5n(c4O)C(=N)N=N5)Cc4ccccc4C3=O)c(O)n21 (stereo unspecified)
Result: > 100 µM

Problem: Lookup NNc1nc(-c2ccccn2)nc2sc3c(c12)CCCCCC3
Result: 18.7 µM

Problem: Lookup O=C1c2ccc3ccccc3c2CCC1N1CCCCC1 (stereo unspecified)
Result: 29.1 µM

Problem: Lookup CCOCC[P+](c1ccccc1)(c1ccccc1)c1ccccc1
Result: > 100 µM
